Test system: P388
Method notes: Growth inhibition of mouse P388 cells
Format: functional
Measurement parameters: read-out: ED50 (the source's name)
Measured metric: EC50 (µg/mL)
Quick note: give the figure in µg/mL, leave out the unit.

# Record smiles, Measured metric, Scale unit, Measurement
measured = [
    ("CCCCCC[C@@H](C)/C=C(C)/C=C/C(=O)N[C@H]1C[C@@]2(O)C=C(Cl)C(=O)[C@@H](Cl)[C@H]2O[C@@H]1OC", "EC50", "µg/mL", 0.15),
]

Specify measured EC50 for CCCCCC[C@@H](C)/C=C(C)/C=C/C(=O)N[C@@H]1CO[C@H]2[C@@H](Cl)C(=O)C(Cl)=C[C@@]2(O)C1 .
0.16

Tell me measured EC50 for CCCCCC[C@@H](C)/C=C(C)/C=C/C(=O)N[C@H]1C[C@]2(O)C=C(Cl)C(=O)[C@](Cl)([C@@H]1O)[C@H]2OC please.
1.7

Note EC50 for the molecule shown: CCCCCC[C@@H](C)/C=C(C)/C=C/C(=O)N[C@H]1C[C@]2(O)C=C(Cl)C(=O)[C@@](Cl)(C2)[C@H]1O
2.8
